So I've got a bunch of binders here, and I need their EC50, CreLuc reporter, 100% hP values.
# targetOrTestSystem: human GLP-1 receptor (human, UniProt P43220 24-463)
# testProtocol: cell-based or functional assay
*1 amine or outer side, *2 acyl side, *3 side chain or, on linkers, in order; H or OH if unused. Where no end group is shown, it is not given here. Side-chain parts run from the residue outwards. [ ]: non-standard residue; d: D form. The star is where a group is joined. C20 diacid = O=C(O)CCCCCCCCCCCCCCCCCCC(=O)*; γGlu = O=C(O)[C@H](CCC(=O)[*:2])N[*:1]; εLys = N[C@@H](CCCCN[*:1])C(=O)[*:2]; dOR = not defined here; Aib = CC(C)(N)C(=O)O
Could you give me the number in nM? Just the number is fine.

Consider the binder YXEGTFTSDYSIXLEQQAQXAFVRHLINKXTRQRY (Aib at 2, 13, 20, 30; Lys29 epsilon-amino acylated with C18DA-gGlu-gGlu-gGlu-gGlu-gGlu; C-terminal amide) [Compound 42] and give its measured EC50, CreLuc reporter, 100% hP.
14.5

Consider the binder YXEGTFTSDYSIXLEKQAQXAFVRHLINKITRQRY (Aib at 2, 13, 20; Lys29 epsilon-amino acylated with C18DA-gGlu-gGlu-gGlu-gGlu-gGlu; C-terminal amide) [Compound 41] and give its measured EC50, CreLuc reporter, 100% hP.
5

Consider the binder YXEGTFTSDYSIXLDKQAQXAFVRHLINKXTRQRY (Aib at 2, 20, 30; aMeL at 13; Lys29 epsilon-amino acylated with C18DA-gGlu-gGlu-gGlu-gGlu-gGlu-gGlu-eLys; C-terminal amide) [Compound 67] and give its measured EC50, CreLuc reporter, 100% hP.
0.6

Consider the binder YXEGTFTSDLSIXLEKQAQXAFIRHLINKXTRQRY (Aib at 2, 13, 20, 30; Lys29 epsilon-amino acylated with C20DA-gGlu-gGlu-gGlu-gGlu-gGlu-gGlu-eLys; C-terminal amide) [Compound 21] and give its measured EC50, CreLuc reporter, 100% hP.
13.9

Consider the binder Y[Aib]EGTFTSDYSI[Aib]LDKQAQ[Aib]AFVRHLINK([εLys-γGlu-γGlu-γGlu-γGlu-γGlu-γGlu-γGlu-C20 diacid])[Aib]TRQ[dOR]Y-NH2 (reading uncertain) [Compound 16] and give its measured EC50, CreLuc reporter, 100% hP.
1.8

Consider the binder YXEGAFTSDYSIXLEKQAQXAFVRHLINKXTRQRY (Aib at 2, 13, 20, 30; Lys29 epsilon-amino acylated with C18DA-gGlu-gGlu-gGlu-gGlu-gGlu-gGlu-eLys; C-terminal amide) [Compound 85] and give its measured EC50, CreLuc reporter, 100% hP.
14.5

Consider the binder YXEGTFTSDYSIXLEKQAQXAFVRHLIAKXTRQRY (Aib at 2, 13, 20, 30; Lys29 epsilon-amino acylated with C18DA-gGlu-gGlu-gGlu-gGlu-gGlu-gGlu-eLys; C-terminal amide) [Compound 68] and give its measured EC50, CreLuc reporter, 100% hP.
3.3
